Quick reference: pIC50 of the listed items.
tgt: HLA DRB1*0802 (human)
procedure-text: competition with 125I probe peptide, purified HLA
Schema: pIC50 number; meaning minus log10 of the concentration expressed in molar units.

Take a look at these entries with their results.
INSERT INTO assay_data (binder, measured_result) VALUES
  ('TGRCIACWRRPRTET (modifications not checked) [HPV31.E6.132 HTL epitope]', 6.29),
  ('WKHIRLECVLMYKAR (modifications not checked) [HPV31.E2.033 HTL epitope]', 6.32),
  ('WKHMRLECAIYYKAR (modifications not checked) [HPV16.E2.033 HTL epitope]', 7.05),
  ('FHSIAGQYRGQCNTC (modifications not checked) [HPV45.E6.127 HTL epitope]', 5.12);

Request: Return reported pIC50; argument: QRFHNIRGRWTGRCM (modifications not checked) [HPV16.E6.130 HTL epitope]
Response: 6.05

Request: Another binder to look at: DWVMAIFGVNPTVAEGF (modifications not checked) [HPV45.E1.228 HTL epitope]
Response: 5.37
